# ASSAY_SYSTEM: T1, human vascular endothelial growth factor receptor-2 Fc chimera (KDR-Fc) (human, UniProt P35968 20-764)
# T1 construct: range 1-764; also called human VEGFR-2; not shown: human IgG1 Fc
# T1 sequence (P35968 20-764 limits assumed, change not shown, form in doubt): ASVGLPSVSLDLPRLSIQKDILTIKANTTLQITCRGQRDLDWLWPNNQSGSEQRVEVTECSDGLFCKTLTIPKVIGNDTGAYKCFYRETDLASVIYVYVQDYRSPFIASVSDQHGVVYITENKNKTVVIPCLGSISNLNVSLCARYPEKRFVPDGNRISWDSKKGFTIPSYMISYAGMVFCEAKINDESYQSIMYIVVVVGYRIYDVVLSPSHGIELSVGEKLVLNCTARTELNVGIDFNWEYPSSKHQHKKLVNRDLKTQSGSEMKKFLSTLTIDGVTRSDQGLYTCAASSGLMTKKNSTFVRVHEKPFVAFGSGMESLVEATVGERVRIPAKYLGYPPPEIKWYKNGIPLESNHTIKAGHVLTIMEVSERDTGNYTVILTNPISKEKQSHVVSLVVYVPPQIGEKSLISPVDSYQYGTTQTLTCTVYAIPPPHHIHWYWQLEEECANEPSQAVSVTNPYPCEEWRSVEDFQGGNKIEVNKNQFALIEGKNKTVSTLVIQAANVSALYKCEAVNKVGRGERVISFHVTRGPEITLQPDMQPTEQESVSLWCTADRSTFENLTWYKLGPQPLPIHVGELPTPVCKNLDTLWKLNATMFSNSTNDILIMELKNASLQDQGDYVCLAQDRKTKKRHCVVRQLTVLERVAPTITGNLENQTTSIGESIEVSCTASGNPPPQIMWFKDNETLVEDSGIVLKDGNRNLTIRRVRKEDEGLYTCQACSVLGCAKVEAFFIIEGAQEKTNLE
# RUN_DESCRIPTION: radioactive equilibrium binding assay, KDR-Fc
QUANTITY: Kd (nM)
Numbers only, in nM.

| BINDER | QUANTITY | UNIT_ABBREVIATION | RESULT_NUMBER |
| --- | --- | --- | --- |
| E25 (designed binder, 10Fn3 clone, Del 1-8) EVVAATPTSLLISWRHPHFPTRYYRITYGETGGNSPVQEFTVPLQPPTATISGLKPGVDYTITGYAVTLERNGRELMTPISINYRT | Kd | nM | 1.58 |
| E5 (designed binder, 10Fn3 clone, Del 1-8) EVVAATPTSLLISWRHPHFPTRYYRITYGETGGNSPVQEFTVPLQPPTATISGLKPGVDYTITGYAVTDGQNGRLLNVPISINYRT | Kd | nM | 0.4 |

So what's the measured Kd for this one? E19 (designed binder, 10Fn3 clone, Del 1-8) EVVAATPTSLLISWRHPHFPTRYYRITYGETGGNSPVQEFTVPLQPPTATISGLKPGVDYTITGYAVTVERNGRHLMTPISINYRT 1.3
